Where do the numbers come from? From patent US20110212084A1.

# experimental system: human IgEλ (U266 derived) (human, UniProt P01854 1-546)
# Sequence (P01854 whole entry): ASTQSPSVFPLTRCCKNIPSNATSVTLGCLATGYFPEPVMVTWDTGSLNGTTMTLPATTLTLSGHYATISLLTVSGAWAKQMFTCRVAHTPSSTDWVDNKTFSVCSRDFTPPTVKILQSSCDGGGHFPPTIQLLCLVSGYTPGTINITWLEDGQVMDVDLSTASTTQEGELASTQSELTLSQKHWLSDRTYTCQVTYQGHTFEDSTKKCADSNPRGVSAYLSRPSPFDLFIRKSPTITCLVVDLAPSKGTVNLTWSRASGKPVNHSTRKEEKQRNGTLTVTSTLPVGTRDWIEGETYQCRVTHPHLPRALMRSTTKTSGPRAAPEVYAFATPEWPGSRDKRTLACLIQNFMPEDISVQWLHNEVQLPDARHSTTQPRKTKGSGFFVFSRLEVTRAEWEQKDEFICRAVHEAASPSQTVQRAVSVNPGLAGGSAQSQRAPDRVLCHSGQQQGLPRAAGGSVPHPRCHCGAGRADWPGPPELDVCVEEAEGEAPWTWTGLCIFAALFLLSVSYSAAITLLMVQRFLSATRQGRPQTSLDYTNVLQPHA
# procedure text: HTRF receptor-ligand competition, scFv titrated; Eu-cryptate human IgE (U266) binding to human FcεRI-Fc; geomean
Task for the reader: assign each of the following binders its reported pIC50.
For clarity, pIC50 is expressed as the negative log10 of concentration in mol/L.

Consider the binder shown here: Antibody 23 (scFv) (scFv, V domains shown, purified scFv) VH: EVQLLESGGGLVQPGGSLRLSCAASEFTFGSYAMSWVRQAPGKGLEWVSAISGGSGGRTYYADSVKGRFTISRDNSKNTLYLQMNSLRAEDTAVYYCARHIAVAGTRGFDYWGRGTLVTVSS VL: SYVLTQPPSVSVSPGQTASITCSGDKLGDTYASWYRQRSGQSPVLVIYQDDKRPSGIPERFSGSNSGNAATLTISGTHTMDEADYYCLAWDTRTSGAVFGGGTKLTVL What is its recorded pIC50?
8.15

State the recorded pIC50 for this entry: Antibody 30 (scFv) (scFv, V domains shown, purified scFv) VH: EVQLLESGGGLVQPGGSLRLSCAASGFTFSSYAMSWVRQAPGKGLEWVSAISGSGGRTYYADSVKGRFTISRDNSKNTLYLQMNSLRAEDTAVYYCARLSYPAITRGFDYWGRGTLVTVSS VL: SYVLTQPPSVSVSPGQTASITCSGDKLGDTYASWYRQRSGQSPVLVIYQDDKRPSGIPERFSGSNSGNTATLTISGTHTMDEADYYCLAWDTRTSGAVFGGGTKLTVL
8.40

Entry under review: Antibody 2 (scFv) (scFv, V domains shown, purified scFv) VH: EVQLLESGGGLVQPGGSLRLSCAASGFTFSSYAMSWVRQAPGKGLEWVSAISGSGGRTYYADSVKGRFTISRDNSKNTLYLQMNSLRAEDTAVYYCARHIAVAGTRGFDYWGRGTLVTVSS VL: SYVLTQPPSVSVSPGQTASITCSGDKLGDTYASWYRQRSGQSPVLVIYQDDRRPSGIPERFSGSNSGNTATLTISGTHTMDEADYYCLAWDTRTSGAVFGGGTKLTVL . Reported pIC50?
8.15
